Source of measurements: PubChem BioAssay (NCI)

In this section we review reported growth inhibition values for a set of compounds.
- Assay info: NCI Yeast Anticancer Drug Screen. Data for the CLN2oe strain (AID 163);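 also: 0% = growth of vehicle-only control cultures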
- Experimental parameters: S. cerevisiae CLN2oe strain, at 3.7 µM, active compounds read high
- Procedure: Growth inhibition of yeast strains with defined genetic alterations is measured as a screen for potential anti-cancer activity. Selected strains with alterations in DNA damage repair or cell cycle control were exposed to compounds and growth inhibition was measured relative to vehicle treated controls. The strain used in this assay is CLN2oe
The panel holds about 79,000 compounds, 15% with a hit somewhere; the sample as a whole holds those more often.
Measurement kind: growth inhibition (%)

>>> print(df.to_string())
                                 smiles_repr  value_units  readout_number
 0                 COc1ccc(N2CN(C)CSC2=S)cc1            %             -23
 1                  O=NN(CCCl)C(=O)NC1CCCCC1            %              -2
 2  N#Cc1sc2c(c1OC(=O)c1ccco1)c(=O)n(-c1ccccc1)c(=S)n2-c1ccccc1            %              -1
 3  N#C/C(=C/N1C(=O)/C(=C/c2ccc([N+](=O)[O-])cc2)SC1=S)c1nc2ccccc2s1            %              -1
 4       O=S(=O)(c1cc(Cl)ccc1O)c1cc(Cl)ccc1O            %              89
 5       Cn1ncc2cc3c(Nc4ccc(Cl)cc4)cccc3nc21            %              -4
 6             OB(O)c1ccccc1C#Cc1ccccc1B(O)O            %               1
 7      C=C(CCCO)[C@@H]1CC[C@@](C)(O)[C@H]1C            %             -13
 8                     N#CC(=S)Nc1cccc(Cl)c1            %              28
 9              COc1ccc(SCc2cc(OC)ccc2OC)cc1            %              -9
10   COc1cc(/C=C/c2sc3ccccc3[n+]2C)ccc1N(C)C            %              -2
11  Cc1cc(Cl)ccc1NC(=O)/C(Cl)=C1/Sc2ccccc2NC1=O            %              -1
